Assay: drug combination growth inhibition, ovarian cancer – cell-based, oncology-focused library, rucaparib conditional, profiling panel (AID 1508598)
Conditions: patient-derived ovarian cancer cells, CellTiter-Glo viability, 144 h; at 0.0781 µM; OCI-C5x cells; with rucaparib 10 µM; 100% = cells with rucaparib alone
Calls of active or inactive are those of the source.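 The calls were made as follows: active = normalized viability below 100% at a tested concentration; inactive = the rest.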
Entry note: the call must match one of active, inactive

Recorded results for 4 molecules are shown here.
item_smiles=CCOc1cc2ncc(C#N)c(Nc3ccc(F)c(Cl)c3)c2cc1NC(=O)/C=C/CN(C)C assigned_class=active
item_smiles=O=C(Nc1ccccc1-c1cn2c(CN3CCNCC3)csc2n1)c1cnc2ccccc2n1 assigned_class=inactive
item_smiles=COc1nc(C)cnc1NS(=O)(=O)c1cccnc1-c1ccc(-c2nnco2)cc1 assigned_class=inactive
item_smiles=Cn1cc(CNCC2CCN(c3ncc(C(=O)NO)cn3)CC2)c2ccccc21 assigned_class=active

Hi, do you know how CNC(=O)c1ccc(N2C(=S)N(c3ccc(C#N)c(C(F)(F)F)c3)C(=O)C2(C)C)cc1F came out in this test? inactive

* * *

Assay: drug combination growth inhibition, ovarian cancer – cell-based, oncology-focused library, rucaparib conditional, profiling panel (AID 1508598)
Details: patient-derived ovarian cancer cells, CellTiter-Glo viability, 144 h; at 0.0195 µM; OCI-P5x cells; with rucaparib 20 µM; 100% = cells with rucaparib alone
Activity calls are given as the source filed them.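 How the source made its calls: active means normalized viability below 100% at a tested concentration; inactive means the rest.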
Response enum: y (active), n (inactive)

molecule=CN1CCN(c2cccc(Nc3nc4c(-c5ccc(S(C)(=O)=O)cc5)cccn4n3)c2)CC1 assigned_class=n
molecule=Nc1nccc(Oc2ccc(NC(=O)c3c[nH]cc(-c4ccc(F)cc4)c3=O)cc2F)c1Cl assigned_class=y
molecule="COc1ccc(C2=NC(c3ccc(Cl)cc3)C(c3ccc(Cl)cc3)N2C(=O)N2CCNC(=O)C2)c(OC(C)C)c1 (centres undefined)" assigned_class=y

Name the outcome recorded for COc1cc(Nc2ncc(F)c(Nc3ccc4c(n3)NC(=O)C(C)(C)O4)n2)cc(OC)c1OC in the assay. y

GET /call?item= CN1CCC(CNc2ccc3ncc(-c4cccc(OC(F)(F)F)c4)n3n2)CC1 returns the recorded outcome of this test. y

Name the outcome recorded for Cc1cnc(NC(=O)Nc2cc(Br)c(C)cc2OC[C@@H]2CNCCO2)cn1 in the assay. n

* * *

Listed next: entries and their corresponding cell count.
Experiment: viability loss with induced miR-34 in A549 – imaging, A549 dox-inducible miR-34, nuclei and caspase counts, primary screen (AID 1347080)
Settings: A549 miR-34 inducible, Hoechst nuclei count, 48 h; measured here: total cells with miR-34 induction; stronger effect = lower value
The response must contain the number and no unit.

Solved cases (4 shown):
item_smiles=O=C(N/N=C/c1ccccc1O)c1ccccc1O measurement_name="cell count" experimental_value=4010
item_smiles=COc1cc(N2CCC(N)CC2)ccc1Nc1ncc(Cl)c(-c2c[nH]c3ccccc23)n1 measurement_name="cell count" experimental_value=1920
item_smiles=O=C(O)c1c(Sc2ccccc2)c2cc(Cl)ccc2n1Cc1ccc(Cl)cc1 measurement_name="cell count" experimental_value=6730
item_smiles=CCCCC(C)(C)[C@H](O)/C=C/[C@H]1[C@H](O)CC(=O)[C@@H]1CC(=O)CCCCC(=O)O measurement_name="cell count" experimental_value=5680

Now let's try a different one.
Retrieve cell count measured for C=CC(=O)Nc1ccc2ncnc(Nc3ccc(OCc4cccc(F)c4)c(Cl)c3)c2c1 and print it. 4290

Data origin: PubChem BioAssay
